Assay target: T1, full-length human GIPR with an N-terminal FLAG tag (human, UniProt P48546 22-466)
T1 sequence (looked up): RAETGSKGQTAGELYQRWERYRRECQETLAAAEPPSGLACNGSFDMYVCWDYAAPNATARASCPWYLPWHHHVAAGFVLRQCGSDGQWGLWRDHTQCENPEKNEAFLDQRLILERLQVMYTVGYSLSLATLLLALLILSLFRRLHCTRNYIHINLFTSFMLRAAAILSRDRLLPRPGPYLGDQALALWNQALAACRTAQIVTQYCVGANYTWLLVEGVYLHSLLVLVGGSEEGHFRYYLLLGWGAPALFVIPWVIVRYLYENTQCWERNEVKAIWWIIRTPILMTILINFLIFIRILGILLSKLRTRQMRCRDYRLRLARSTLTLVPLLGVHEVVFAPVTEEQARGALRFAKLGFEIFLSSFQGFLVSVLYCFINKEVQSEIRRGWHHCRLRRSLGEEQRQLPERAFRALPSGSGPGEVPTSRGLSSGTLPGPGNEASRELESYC
Experimental details: cell-based or functional assay
Starred links: 1 amine or outer side, 2 acyl side, 3 side chain; linkers in the order of their positions; H or OH if unused. Non-standard residues stand in square brackets, D forms with d. Groups on a side chain read outwards from the residue. No end group written: not given here. *: point of attachment. C20 diacid = O=C(O)CCCCCCCCCCCCCCCCCCC(=O)*; C18 diacid = O=C(O)CCCCCCCCCCCCCCCCC(=O)*; C17 diacid = O=C(O)CCCCCCCCCCCCCCCC(=O)*; γGlu = O=C(O)[C@H](CCC(=O)[*:2])N[*:1]; NMeY = CN[C@@H](Cc1ccc(O)cc1)C(=O)O; AEEA = NCCOCCOCC(=O)O; Aib = CC(C)(N)C(=O)O
Metric name: Human GIPR cAMP EC50, HEK293T (pM)
Write down the numeric answer in pM and omit the unit.

Worked examples, 4 binders total:
- Y[Aib]EGTFISDYSIALDKIAQRK([AEEA-AEEA-γGlu-γGlu-C17 diacid])FVEWLLAQRG-OH [Compound No. 143]: 0.4
- [NMeY][Aib]EGTFISDYSI[Aib]LDR[Aib]AQ[Aib]K([AEEA-γGlu-AEEA-γGlu-C18 diacid])FVNWLLAQSPSSGAPPPS-NH2 [Compound No. 92]: 0.6
- YXEGTFISDYSIXXDRXAQXDFVNWLLAQRPSSGAPPPS (N-methyl Tyr 1; Aib at 2,13,17,20; Lys(G5-C18 diacid) at 14; C-terminal OH) [Compound No. 54]: 0.6
- [NMeY][Aib]EGTFISDYSI[Aib]LDR[Aib]AQ[Aib]K([AEEA-AEEA-γGlu-γGlu-C20 diacid])FVNWLLAQRPSSGAPPPS-NH2 [Compound No. 101]: 0.9

For the next question, use this binder.
Human GIPR cAMP EC50, HEK293T reading for YXEGTFISDYSIAXDSXAQXDFVNWLLAQSG (N-methyl Tyr 1; Aib at 2,17,20; Lys(G5-C18 diacid) at 14; C-terminal OH) [Compound No. 60] : 0.3
